List of CC50 values.
# Assay method text: Cytotoxicity in Caco-2 cells
# Assay setup: human
Write the figure, then the unit, nothing else.

Worked cases, CC50 given:
Input: Record request: CC50 value, item CC(=O)O[C@H](CC=C(C)C)C1=CC(=O)c2c(O)ccc(O)c2C1=O
Output: 65.8 µM

Input: Record request: CC50 value, item C=CCc1ccc(O)c(-c2ccc(O)c(CC=C)c2)c1
Output: 91.2 µM

Could you now look at the following molecule, please?
Input: Record request: CC50 value, item C=CCc1ccc(O)c(-c2cc(CC=C)ccc2O)c1
Output: 47.3 µM

###

List of CC50 values.
# Assay method text: Cytotoxicity in Calu-3 cells
# Assay setup: human

Worked cases, CC50 given:
Input: Record request: CC50 value, item C=CCc1ccc(O)c(-c2cc(CC=C)ccc2O)c1
Output: > 20 µM

Input: Record request: CC50 value, item CCC(CC)COC(=O)[C@H](C)N[P@](=O)(OC[C@H]1O[C@@](C#N)(c2ccc3c(N)ncnn23)[C@H](O)[C@@H]1O)Oc1ccccc1 [Compound 1, remdesivir, reference compound]
Output: > 0.1 µM

Others:
Input: Record request: CC50 value, item CC(C)=CC[C@]12Oc3cc(O)c([C@H]4C=C(C)C[C@H](c5ccc(O)cc5O)[C@H]4C(=O)c4ccc(O)cc4O)c(O)c3C(=O)[C@@]1(O)Oc1cc(O)ccc12
Output: 23.6 µM

###

# Experimental system: SARS-CoV-2 PLpro (Severe acute respiratory syndrome coronavirus 2)
# Assay method text: PL^pro fluorogenic peptide cleavage assay (substrate Z-RLRGG-AMC)
# Format: biochemical
# Design: papain-like protease (PL^pro; domain of nsp3); His; purchased BPS Biosciences BPS-100735-1
# Assay setup: read-out: SARS-CoV-2 PL^pro enzyme inhibition (%) 100 μM
List of inhibition at 100 µM values.
Write the figure, then the unit, nothing else.

Input: Record request: inhibition at 100 µM value, item COc1cc2c(cc1OC)/C(=C/C(=O)c1ccc(CSC)cc1)NCC2
Output: 14.6%

Others:
Input: Record request: inhibition at 100 µM value, item Cn1cc(CNC(=O)c2cc([N+](=O)[O-])ccc2Cl)cn1
Output: 6.4%

Input: Record request: inhibition at 100 µM value, item COc1ccc(S(=O)(=O)NCc2ccc(C(=O)NCc3ccccc3)cc2)cc1
Output: 1.5%

###

# Experimental system: SARS-CoV-2 PLpro (Severe acute respiratory syndrome coronavirus 2)
# Assay method text: PL^pro fluorogenic peptide cleavage assay (substrate Z-RLRGG-AMC)
# Format: biochemical
# Parameters: papain-like protease (PL^pro; domain of nsp3); His; purchased BPS Biosciences BPS-100735-1
# Assay setup: read-out: SARS-CoV-2 PL^pro enzyme inhibition (%) 20 μM
Short version: inhibition at 20 µM at least 5% is Criterion met, less is Criterion not met.

Input: # bool: inhibition at 20 µM of COc1ccc(CNC(=O)c2cn(CCC(C)C)c(=O)c3ccccc23)cc1OC [Compound 48] >= 5%
Output: Criterion met

Input: # bool: inhibition at 20 µM of C=CCc1ccc(O)c(-c2cc(CC=C)ccc2O)c1 [Compound 36, magnolol] >= 5%
Output: Criterion not met

Input: # bool: inhibition at 20 µM of CN1[C@@H](CC(=O)c2ccccc2)CCC[C@H]1C[C@H](O)c1ccccc1 [Compound 32, lobelin] >= 5%
Output: Criterion not met

Now, please, on to the next molecule.
Input: # bool: inhibition at 20 µM of COc1cc(CNC(=O)CCCC/C=C/C(C)C)ccc1O [Compound 31, trans-capsaicin] >= 5%
Output: Criterion met

From: paper PMC9885530
